# inhibition at 10 µM per entry
test system: HT29; assay: NCI-60 one-dose assay; type: cell-based; settings: Homo sapiens, HT-29, HT29 (Colon Cancer), read-out: Cell Inhibition Percent

{"columns": ["COMPOUND", "inhibition at 10 µM (%)"],
 "data": [
  ["O=C(NN=Cc1ccc(F)cc1)c1ccc2[nH]c(-c3ccc(Cl)cc3)nc2c1 [Compound 4d]", 95.7],
  ["O=C(NN=Cc1ccccc1)c1ccc2[nH]c(-c3ccc(Cl)cc3)nc2c1 [Compound 4a]", 3.67],
  ["O=C(NN=Cc1ccc([N+](=O)[O-])cc1)c1ccc2[nH]c(-c3ccc(Cl)cc3)nc2c1 [Compound 4c]", 91.8]
]}
